This collection of values is drawn from patent US12528767B2.

# measurement notes: Plasma protein binding assay (Rapid Equilibrium Dialysis): mouse
# Type: in vitro ADME
# Design: dose or concentration left out as unconfirmed
# condition context: pH 7.4, RED, 5 hours at 37° C.
experimental endpoint: fraction unbound at 5 h

# compound, experimental endpoint, result value
rows = [
    ("O=C(NO)c1ccc(CN2CCc3c([nH]c4ccccc34)C2)c(F)c1 [compound 46]", "fraction unbound at 5 h", 0.062),
]

* * *

# assayed target: Full length Human HDAC11 (Homo sapiens)
# Sequence (Q96DB2 1-347): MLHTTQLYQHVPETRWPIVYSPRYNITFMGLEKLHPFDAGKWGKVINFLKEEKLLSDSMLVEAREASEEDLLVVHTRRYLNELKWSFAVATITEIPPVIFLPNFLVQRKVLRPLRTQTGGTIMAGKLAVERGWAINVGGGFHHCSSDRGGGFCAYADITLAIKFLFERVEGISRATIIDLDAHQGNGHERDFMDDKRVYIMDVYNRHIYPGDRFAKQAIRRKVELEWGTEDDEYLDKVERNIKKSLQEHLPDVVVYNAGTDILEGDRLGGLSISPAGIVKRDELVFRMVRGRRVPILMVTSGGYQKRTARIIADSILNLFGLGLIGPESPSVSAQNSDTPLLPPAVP
# Lookup of reported IC50 keyed by entry

# compound, IC50
records = [
    ("O=C(NO)c1cc(F)c2c(c1)CCN(C1CC3(CCCCC3)C1)C2", "1 to 10 µM"),
    ("O=C(NO)c1cc(F)c2c(c1)C[C@H]1CCCCN1C2 (single isomer, unassigned)", "> 100 µM"),
    ("O=C(NO)c1ccc(CN2C[C@H]3CC[C@@H]2CO3)c(F)c1 (single isomer, unassigned)", "10 to 100 µM"),
    ("O=C(NO)c1ccc(CN2CC3CCC2CO3)c(F)c1 (stereo not drawn)", "> 100 µM"),
    ("O=C(NO)c1cc(F)c2c(c1)C[C@@H]1CCCCN1C2 (single isomer, unassigned)", "1 to 10 µM"),
    ("O=C(NO)c1cc(F)c2c(c1)CCN(CC13CC4CC(CC(C4)C1)C3)C2", "1 to 10 µM"),
    ("O=C(NO)c1cc(F)c2c(c1)CCN1CCC[C@@H]21 (single isomer, unassigned)", "> 100 µM"),
    ("O=C(NO)c1ccc2c(c1)CN1CCCCN1C2", "10 to 100 µM"),
    ("O=C(NO)c1ccc(CN2CC3CCC(C2)O3)c(F)c1", "10 to 100 µM"),
]

* * *

# assayed target: UniProt:Q9BY41
# Sequence (Q9BY41 whole entry): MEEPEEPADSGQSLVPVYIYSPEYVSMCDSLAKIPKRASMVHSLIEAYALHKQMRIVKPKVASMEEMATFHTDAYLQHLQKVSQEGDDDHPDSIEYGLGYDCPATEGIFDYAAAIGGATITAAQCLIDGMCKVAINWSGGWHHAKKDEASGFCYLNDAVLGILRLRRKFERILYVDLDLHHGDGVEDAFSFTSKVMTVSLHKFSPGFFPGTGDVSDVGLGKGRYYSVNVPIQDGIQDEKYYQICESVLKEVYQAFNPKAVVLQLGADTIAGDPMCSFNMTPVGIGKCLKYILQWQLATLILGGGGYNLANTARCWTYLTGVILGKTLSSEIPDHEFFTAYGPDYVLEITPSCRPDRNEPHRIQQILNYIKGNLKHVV
pIC50: −log10 of the molar value.
A collection of molecules and their measured pIC50

# molecule, pIC50
records = [
    ("O=C(NO)c1cc(F)c2c(c1)C[C@H]1CCCCN1C2 (single isomer, unassigned)", "5.00 to 6.00"),
    ("O=C(NO)c1ccc(CN2C[C@H]3CC[C@@H]2CO3)c(F)c1 (single isomer, unassigned)", "5.00 to 6.00"),
    ("O=C(NO)c1cc(F)c2c(c1)CCN([C@@H]1CCC3(CCCCC3)C1)C2 (single isomer, unassigned)", "5.00 to 6.00"),
    ("O=C(NO)c1cc(F)c2c(c1)CCN(CC13CC4CC(CC(C4)C1)C3)C2", "4.00 to 5.00"),
]
